Where do these numbers come from? They come from ChEMBL document CHEMBL1134076.

ASSAY_TARGET: Sodium- and chloride-dependent glycine transporter 1 (Rattus norvegicus)
RUN_DESCRIPTION: In vitro glycine reuptake inhibitory activity against glycine transporter type-1 isoform C (GlyT-1c) transporter cells after incubation at 37 degrees for 30 min in presence of 50 nM [3H]glycine.
pIC50: −log10 of the molar value.
Overview of recorded pIC50 for various molecules

MOLECULE | pIC50
CC(C)c1ccc(C(=CCC(N)C(=O)O)c2ccc(C(C)C)cc2)cc1 (stereo not given) | < 5.00
CC(C)c1ccc(/C(=C\CC(N)C(=O)O)c2ccsc2)cc1 (stereo not given) | 5.24
CCc1ccc(/C(=C\CC(N)C(=O)O)c2ccc(F)cc2F)cc1CC (stereo not given) | < 5.00
NC(C/C=C(\c1ccc(-c2ccccc2)cc1)c1ccc(F)cc1F)C(=O)O (stereo not given) | < 5.00

Returns the measured pIC50 for the input molecule. Input: NC(C/C=C(\c1cccnc1)c1ccc(F)cc1F)C(=O)O (stereo not given)
< 5.00

----------
ASSAY_TARGET: Sodium- and chloride-dependent glycine transporter 2 (Rattus norvegicus)
Sequence (P58295 whole entry): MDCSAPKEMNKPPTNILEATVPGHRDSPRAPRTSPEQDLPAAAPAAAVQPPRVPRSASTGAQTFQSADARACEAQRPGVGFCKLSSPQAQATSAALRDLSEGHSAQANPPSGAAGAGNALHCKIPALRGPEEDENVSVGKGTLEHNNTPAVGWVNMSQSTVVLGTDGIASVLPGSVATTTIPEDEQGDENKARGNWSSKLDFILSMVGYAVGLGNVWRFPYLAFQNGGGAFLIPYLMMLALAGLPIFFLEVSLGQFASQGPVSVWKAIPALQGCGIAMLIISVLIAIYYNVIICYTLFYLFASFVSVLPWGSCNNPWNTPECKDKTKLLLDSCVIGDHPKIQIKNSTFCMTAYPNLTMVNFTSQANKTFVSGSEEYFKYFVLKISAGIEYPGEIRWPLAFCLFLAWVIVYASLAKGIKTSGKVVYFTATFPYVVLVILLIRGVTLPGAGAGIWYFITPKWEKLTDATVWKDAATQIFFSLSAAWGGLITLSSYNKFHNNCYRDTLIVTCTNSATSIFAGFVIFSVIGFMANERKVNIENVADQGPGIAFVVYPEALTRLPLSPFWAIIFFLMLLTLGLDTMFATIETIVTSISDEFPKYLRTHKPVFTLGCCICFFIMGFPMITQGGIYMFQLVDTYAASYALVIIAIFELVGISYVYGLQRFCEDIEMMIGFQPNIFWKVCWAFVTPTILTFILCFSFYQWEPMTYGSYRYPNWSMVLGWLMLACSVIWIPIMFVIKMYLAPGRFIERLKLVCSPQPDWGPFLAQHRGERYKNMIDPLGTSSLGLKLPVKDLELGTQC
RUN_DESCRIPTION: In vitro glycine reuptake inhibitory activity against glycine transporter type-2 (GlyT-2) transporter cells after incubation at 37 degrees for 30 min in presence of 50 nM [3H]glycine.
VALUE_KIND: IC50 (nM)

COMPOUND | IC50 / nM
NC(C/C=C(\c1ccc2ccccc2c1)c1ccc(F)cc1F)C(=O)O (centres undefined) | 770
N[C@@H](C/C=C(\c1ccc2ccccc2c1)c1ccc(F)cc1F)C(=O)O | 365
NC(C/C=C(\c1ccc(-c2ccccc2)cc1)c1ccc(F)cc1F)C(=O)O (centres undefined) | 3660
CCc1ccc(/C(=C\CC(N)C(=O)O)c2ccc(F)cc2F)cc1CC (centres undefined) | 660
CC(C)c1ccc(/C(=C\CC(N)C(=O)O)c2ccsc2)cc1 (centres undefined) | 1030

I: NC(C/C=C(/c1ccc(-c2ccccc2)cc1)c1ccc(F)cc1F)C(=O)O (centres undefined)
II: NC(C/C=C(\c1cccc(-c2ccccc2)c1)c1ccc(F)cc1F)C(=O)O (centres undefined)
When their IC50 values are compared, which is larger, I or II ? // return label of chosen record
I
(I: 2400 nM, II: 1340 nM)

----------
ASSAY_TARGET: Sodium- and chloride-dependent glycine transporter 1 (Rattus norvegicus, UniProt P28572)
Sequence (P28572 whole entry): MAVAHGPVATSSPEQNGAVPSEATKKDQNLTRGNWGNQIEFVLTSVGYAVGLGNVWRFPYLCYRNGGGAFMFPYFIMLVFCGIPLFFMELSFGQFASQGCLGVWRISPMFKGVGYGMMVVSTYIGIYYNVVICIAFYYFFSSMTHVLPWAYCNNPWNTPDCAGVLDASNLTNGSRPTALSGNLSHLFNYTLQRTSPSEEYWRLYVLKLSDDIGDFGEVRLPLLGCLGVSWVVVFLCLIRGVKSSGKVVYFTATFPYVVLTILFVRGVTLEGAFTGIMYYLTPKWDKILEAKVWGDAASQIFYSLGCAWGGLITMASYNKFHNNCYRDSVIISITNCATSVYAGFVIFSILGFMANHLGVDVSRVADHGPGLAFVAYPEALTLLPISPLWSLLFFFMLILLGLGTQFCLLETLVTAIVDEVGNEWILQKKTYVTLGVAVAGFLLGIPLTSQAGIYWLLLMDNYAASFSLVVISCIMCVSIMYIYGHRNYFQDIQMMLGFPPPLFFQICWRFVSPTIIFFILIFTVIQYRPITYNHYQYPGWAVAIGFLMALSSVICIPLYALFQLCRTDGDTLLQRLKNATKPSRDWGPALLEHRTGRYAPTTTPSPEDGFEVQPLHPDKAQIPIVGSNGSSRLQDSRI
RUN_DESCRIPTION: In vitro glycine reuptake inhibitory activity against glycine transporter type-1 isoform C (GlyT-1c) transporter cells after incubation at 37 degrees for 30 min in presence of 50 nM [3H]glycine.
Entries annotated with measured IC50

Below: 5 compounds and their reported IC50.
COMPOUND | IC50
NC(C/C=C(\c1cccc(-c2ccccc2)c1)c1ccc(F)cc1F)C(=O)O (stereo not given) | > 10 µM
CC(C)c1ccc(/C(=C\CC(N)C(=O)O)c2ccc(-c3ccccc3)cc2)cc1 (stereo not given) | > 10 µM
COc1ccc(/C(=C\CC(N)C(=O)O)c2ccc(F)cc2F)cc1 (stereo not given) | > 10 µM
Cc1ccc(/C(=C\CC(N)C(=O)O)c2ccc(F)cc2F)cc1 (stereo not given) | 9.56 µM
COc1ccc(/C(=C/CC(N)C(=O)O)c2ccc(C(C)C)cc2)cc1 (stereo not given) | > 10 µM

Identify the measured IC50 of NC(C/C=C(/c1ccc(F)cc1F)c1ccccc1-c1ccccc1)C(=O)O (stereo not given) for Sodium- and chloride-dependent glycine transporter 1 (Rattus norvegicus, UniProt P28572).
8.92 µM

Now consider CC(C)c1ccc(/C(=C/CC(N)C(=O)O)c2ccc(F)cc2F)cc1 (stereo not given) .
> 10 µM

Same again, this time with CCc1ccc(/C(=C\CC(N)C(=O)O)c2ccc(F)cc2F)cc1 (stereo not given)
> 10 µM

// query: NC(C/C=C(/c1ccc(-c2ccccc2)cc1)c1ccc(F)cc1F)C(=O)O (stereo not given)
3.4 µM

Please do the same for CC(C)c1cccc(/C(=C\CC(N)C(=O)O)c2ccc(F)cc2F)c1 (stereo not given) as well.
> 10 µM
